Provenance of the data: paper PMC12677844

Would you mind telling me the reported IC50 of each entry?
TEST_SYSTEM: full‐length His6‐JMJD6 (Homo sapiens, UniProt Q6NYC1)
Construct: Isolated recombinant full‐length human JMJD6 with a N‐terminal His6‐tag; made in house; host or cells: Escherichia coli BL21 (DE3)
PROTOCOL_NOTES: JMJD6 SPE–MS inhibition assay (BRD4_511–550 hydroxylation)
Format: biochemical
RUN_CONDITIONS: IC50 (JMJD6, SPE–MS), His6‐JMJD6 0.05 µM, 2OG 100 µM, FAS 2 µM, BRD4_511–550 1 µM, L‐ascorbic acid 100 µM; means of two independent runs (mean ± SD)

COMPOUND: O=C(O)CC(O)C(=O)O (centres unmarked) [Malate]
IC50: > 50 µM

Attention now turns to another entry.
Record CN(C)NC(=O)CCC(=O)O [Daminozide] , field IC50: > 50 µM
